System: A. baumannii
Measurement notes: MIC against A. baumannii
Assay type: cell-based
Study conditions: Acinetobacter baumannii, 72 h
Metric: log10 of MIC (log10 of the value in µM)

> print(dat)
                                   molecule  number
1  CCCCCCCCCCCC[N+](C)(C)CC[N+](C)(C)CCCCCCCCCCCC [12(2)12, reference compound]    0.30
2  CCCCCCCCCC[P+](CC[P+](CCCCCCCCCC)(c1ccccc1)c1ccccc1)(c1ccccc1)c1ccccc1 [^PhP2P-10,10, reference compound]    0.30
3  CCCCCCCCCCCC[P+](CC[P+](CCCCCCCCCCCC)(C1CCCCC1)C1CCCCC1)(C1CCCCC1)C1CCCCC1    0.60
4  CCCCCCCC[P+](CC[P+](CCCCCCCC)(C1CCCCC1)C1CCCCC1)(C1CCCCC1)C1CCCCC1    2.10
5  CCCCCCCCCC[P+](CC[P+](CCCCCCCCCC)(C1CCCCC1)C1CCCCC1)(C1CCCCC1)C1CCCCC1    0.90
6  CCCCCCCCCC[P+](C)(C)CC[P+](C)(C)CCCCCCCCCC    1.80
7  CCCCCCCCCCC[P+](CC[P+](CCCCCCCCCCC)(C1CCCCC1)C1CCCCC1)(C1CCCCC1)C1CCCCC1    0.60
8  CCCCCCCCCCCCCC[P+](CC[P+](CCCCCCCCCCCCCC)(C1CCCCC1)C1CCCCC1)(C1CCCCC1)C1CCCCC1    1.80
9  CCCCCCCCCCCC[P+](CC)(CC)CC[P+](CC)(CC)CCCCCCCCCCCC    0.30

---

System: A. baumannii
Metric: MIC

> print(dat)
                         structure.notation    result
1  CCCCCCCCCCCC[P+](C)(C)CC[P+](C)(C)CCCCCCCCCCC      8 µM
2    CCCCCCCC[P+](C)(C)CC[P+](C)(C)CCCCCCCC  > 250 µM
3  CCCCCCCCCCCCCCCC[P+](C)(C)CC[P+](C)(C)CCCCCCCCCCC  > 250 µM
4  CCCCCCCCCCCCCC[P+](C)(C)CC[P+](C)(C)CCCCCCCCCCC    125 µM
5  CCCCCCCCCCCCC[P+](CC[P+](CCCCCCCCCCCCC)(C1CCCCC1)C1CCCCC1)(C1CCCCC1)C1CCCCC1     16 µM
6  CCCCCCCCC[P+](C)(C)CC[P+](C)(C)CCCCCCCCC    250 µM
7  CCCCCCCCCCC[P+](C)(C)CC[P+](C)(C)CCCCCCCCCCC     16 µM
8  CCCCCCCCC[P+](CC[P+](CCCCCCCCC)(C1CCCCC1)C1CCCCC1)(C1CCCCC1)C1CCCCC1     16 µM

---

Test system: red blood cells
Measurement notes: Red Blood Cell (RBC) Lysis Assay (lysis20)
Type: cell-based, sheep
Study conditions: concentration inducing 20% RBC lysis; sheep blood, 1 hour, 37 °C
Metric: Lysis20

> print(dat)
                                   compound  result
1  CCCCCCCCCC[P+](CC)(CC)CC[P+](CC)(CC)CCCCCCCCCC   63 µM
2  CCCCCCCCCCCC[N+](C)(C)CC[N+](C)(C)CCCCCCCCCCCC [12(2)12, reference compound]   16 µM
3  CCCCCCCCCCCCC[P+](CC[P+](CCCCCCCCCCCCC)(C1CCCCC1)C1CCCCC1)(C1CCCCC1)C1CCCCC1    8 µM
4  CCCCCCCCCC[P+](CC[P+](CCCCCCCCCC)(C1CCCCC1)C1CCCCC1)(C1CCCCC1)C1CCCCC1   16 µM
5  CCCCCCCCCCCC[P+](CC)(CC)CC[P+](CC)(CC)CCCCCCCCCCCC    8 µM
6  CCCCCCCCCCC[P+](CC)(CC)CC[P+](CC)(CC)CCCCCCCCCCC   16 µM
7  CCCCCCCCCCCCCC[P+](C)(C)CC[P+](C)(C)CCCCCCCCCCC    8 µM
8  CCCCCCCCCCCC[P+](C)(C)CC[P+](C)(C)CCCCCCCCCCC    8 µM

---

Test system: E. faecalis (OG1RF)
Doc: threshold 60 µM (exclusive). Items with MIC beneath it return true (1); others return false (0).

> print(dat)
                                    molecule       assayed.target  class.label
 1  CCCCCCCCCCCCCC[P+](CC[P+](CCCCCCCCCCCCCC)(C1CCCCC1)C1CCCCC1)(C1CCCCC1)C1CCCCC1 [^CyP2P-14,14]  E. faecalis (OG1RF)     true (1)
 2  CCCCCCCCCC[P+](C)(C)CC[P+](C)(C)CCCCCCCCCC [^MeP2P-10,10]  E. faecalis (OG1RF)     true (1)
 3  CCCCCCCCCC[P+](CC)(CC)CC[P+](CC)(CC)CCCCCCCCCC [^EtP2P-10,10]  E. faecalis (OG1RF)     true (1)
 4  CCCCCCCC[P+](C)(C)CC[P+](C)(C)CCCCCCCC [^MeP2P-8,8]  E. faecalis (OG1RF)    false (0)
 5  CCCCCCCCCCCC[P+](CC)(CC)CC[P+](CC)(CC)CCCCCCCCCCCC [^EtP2P-12,12]  E. faecalis (OG1RF)     true (1)
 6  CCCCCCCCCCCCCCCC[P+](CC[P+](CCCCCCCCCCCCCCCC)(C1CCCCC1)C1CCCCC1)(C1CCCCC1)C1CCCCC1 [^CyP2P-16,16]  E. faecalis (OG1RF)    false (0)
 7  CCCCCCCCCCCC[N+](C)(C)CC[N+](C)(C)CCCCCCCCCCCC [12(2)12, reference compound]  E. faecalis (OG1RF)     true (1)
 8  CCCCCCCCC[P+](C)(C)CC[P+](C)(C)CCCCCCCCC [^MeP2P-9,9]  E. faecalis (OG1RF)    false (0)
 9  CCCCCCCCCCCCCCCC[P+](CC)(CC)CC[P+](CC)(CC)CCCCCCCCCCCCCCCC [^EtP2P-16,16]  E. faecalis (OG1RF)    false (0)
10  CCCCCCCCCCCC[P+](C)(C)CC[P+](C)(C)CCCCCCCCCCC [^MeP2P-12,12]  E. faecalis (OG1RF)     true (1)
11  CCCCCCCCCCC[P+](C)(C)CC[P+](C)(C)CCCCCCCCCCC [^MeP2P-11,11]  E. faecalis (OG1RF)     true (1)
12  CCCCCCCCCCC[P+](CC)(CC)CC[P+](CC)(CC)CCCCCCCCCCC [^EtP2P-11,11]  E. faecalis (OG1RF)     true (1)
13  CCCCCCCCCCCCCCCC[P+](C)(C)CC[P+](C)(C)CCCCCCCCCCC [^MeP2P-16,16]  E. faecalis (OG1RF)    false (0)
14  CCCCCCCC[P+](CC[P+](CCCCCCCC)(C1CCCCC1)C1CCCCC1)(C1CCCCC1)C1CCCCC1 [^CyP2P-8,8]  E. faecalis (OG1RF)    false (0)
15  CCCCCCCCCCCC[P+](CC[P+](CCCCCCCCCCCC)(C1CCCCC1)C1CCCCC1)(C1CCCCC1)C1CCCCC1 [^CyP2P-12,12]  E. faecalis (OG1RF)     true (1)
16  CCCCCCCCCC[P+](CC[P+](CCCCCCCCCC)(C1CCCCC1)C1CCCCC1)(C1CCCCC1)C1CCCCC1 [^CyP2P-10,10]  E. faecalis (OG1RF)     true (1)

---

The following are reported MIC results, target or system E. faecalis (OG1RF).
Metric: MIC

> print(dat)
                                   compound  metric    result
1  CCCCCCCCCC[P+](CCCCCC[P+](CCCCCCCCCC)(c1ccccc1)c1ccccc1)(c1ccccc1)c1ccccc1 [^PhP6P-10,10, reference compound]     MIC      2 µM
2  CCCCCCCCCCCCCC[P+](CC)(CC)CC[P+](CC)(CC)CCCCCCCCCCCCCC [^EtP2P-14,14]     MIC     63 µM
3  CCCCCCCCCCC[P+](CC[P+](CCCCCCCCCCC)(C1CCCCC1)C1CCCCC1)(C1CCCCC1)C1CCCCC1 [^CyP2P-11,11]     MIC      8 µM
4  CCCCCCCCC[P+](CC[P+](CCCCCCCCC)(C1CCCCC1)C1CCCCC1)(C1CCCCC1)C1CCCCC1 [^CyP2P-9,9]     MIC     16 µM
5  CCCCCCCCCCCCC[P+](CC[P+](CCCCCCCCCCCCC)(C1CCCCC1)C1CCCCC1)(C1CCCCC1)C1CCCCC1 [^CyP2P-13,13]     MIC     32 µM
6  CCCCCCCC[P+](CC)(CC)CC[P+](CC)(CC)CCCCCCCC [^EtP2P-8,8]     MIC  > 250 µM
7  CCCCCCCCCC[P+](CC[P+](CCCCCCCCCC)(c1ccccc1)c1ccccc1)(c1ccccc1)c1ccccc1 [^PhP2P-10,10, reference compound]     MIC      8 µM
8  CCCCCCCCCCCCCC[P+](C)(C)CC[P+](C)(C)CCCCCCCCCCC [^MeP2P-14,14]     MIC     32 µM
